- system.name: Cyclin-dependent kinase 1/cyclin B (Homo sapiens)
- procedure.details: Inhibitory concentration against Cyclin-dependent kinase 1-cyclin B
log10(IC50) values for the compounds below.
readout.name: log10(IC50) (log10 of the value in µM)

smiles.structure: CC(C)n1cnc2c(NCc3ccccc3)ncnc21
log10(IC50): 0.56
--
smiles.structure: CCCCCNc1ncnc2c1ncn2C(C)C
log10(IC50): 0.84
--
smiles.structure: CC(C)n1cnc2c(NCc3cccc(O)c3)ncnc21
log10(IC50): 0.49
--
smiles.structure: CC(C)c1n[nH]c2c(NCc3cccc(O)c3)ncnc12
log10(IC50): 0.23
--
smiles.structure: CC(C)c1n[nH]c2c(NCc3ccccc3)ncnc12
log10(IC50): 0.08
--
smiles.structure: CCCCCNc1ncnc2c(C(C)C)n[nH]c12
log10(IC50): 0.08
--
smiles.structure: CC(C)c1n[nH]c2c(NCc3ccco3)ncnc12
log10(IC50): 0.40
--
smiles.structure: CC(C)n1cnc2c(Nc3cccc(Cl)c3)ncnc21
log10(IC50): 0.77
--
smiles.structure: CC(C)=CCNc1ncnc2c1ncn2C(C)C
log10(IC50): 1.23
--
smiles.structure: CC(C)n1cnc2c(NCc3ccco3)ncnc21
log10(IC50): 0.96
--
smiles.structure: CC(C)n1cnc2c(NCc3ccccc3O)ncnc21
log10(IC50): 0.64
--
smiles.structure: COc1ccc(CNc2ncnc3c2ncn3C(C)C)cc1O
log10(IC50): 0.65
--
smiles.structure: CC(C)n1cnc2c(NCc3ccc(O)cc3)ncnc21
log10(IC50): 0.60

###

- system.name: Cyclin-dependent kinase 1/cyclin B (Homo sapiens, UniProt P06493)
- procedure.details: Inhibitory concentration against Cyclin-dependent kinase 1-cyclin B
pIC50: −log10 of the molar value.
readout.name: pIC50

smiles.structure: CC(C)c1n[nH]c2c(NCc3ccccc3Br)ncnc12
test.result: 4.96

smiles.structure: COc1ccc(CNc2ncnc3c(C(C)C)n[nH]c23)cc1O
test.result: 5.96

smiles.structure: CC(C)c1n[nH]c2c(Nc3cccc(Cl)c3)ncnc12
test.result: 6.05

smiles.structure: COc1ccc(CNc2ncnc3c2ncn3C(C)C)cc1
test.result: 5.42

smiles.structure: CC(C)n1cnc2c(NCc3ccccc3Br)ncnc21
test.result: 4.64

###

- system.name: K-562 (Homo sapiens)

smiles.structure: COc1ccc(CNc2ncnc3c(C(C)C)n[nH]c23)cc1O
IC50 [µM]: 26
//
smiles.structure: CC(C)c1n[nH]c2c(NCc3ccccc3)ncnc12
IC50 [µM]: 66
//
smiles.structure: CC(C)c1n[nH]c2c(NCc3cccc(O)c3)ncnc12
IC50 [µM]: 88
//
smiles.structure: CC(C)c1n[nH]c2c(NCc3ccccc3O)ncnc12
IC50 [µM]: 54
//
smiles.structure: CCCCCNc1ncnc2c(C(C)C)n[nH]c12
IC50 [µM]: 61
//
smiles.structure: CC(C)c1n[nH]c2c(Nc3cccc(Cl)c3)ncnc12
IC50 [µM]: 18.4
//
smiles.structure: CC(C)n1cnc2c(NCc3ccccc3Br)ncnc21
IC50 [µM]: 49
//
smiles.structure: CC(C)n1cnc2c(Nc3cccc(Cl)c3)ncnc21
IC50 [µM]: 54
//
smiles.structure: CC(C)c1n[nH]c2c(NCc3ccccc3Br)ncnc12
IC50 [µM]: 29
//
smiles.structure: COc1ccc(CNc2ncnc3c(C(C)C)n[nH]c23)cc1
IC50 [µM]: 46
